# assayed-system: human PI3Kα protein (Homo sapiens)
# Construct: purchased Carna Biosciences, Inc; host or cells: baculovirus expression system
# Sequence (P42336 whole entry): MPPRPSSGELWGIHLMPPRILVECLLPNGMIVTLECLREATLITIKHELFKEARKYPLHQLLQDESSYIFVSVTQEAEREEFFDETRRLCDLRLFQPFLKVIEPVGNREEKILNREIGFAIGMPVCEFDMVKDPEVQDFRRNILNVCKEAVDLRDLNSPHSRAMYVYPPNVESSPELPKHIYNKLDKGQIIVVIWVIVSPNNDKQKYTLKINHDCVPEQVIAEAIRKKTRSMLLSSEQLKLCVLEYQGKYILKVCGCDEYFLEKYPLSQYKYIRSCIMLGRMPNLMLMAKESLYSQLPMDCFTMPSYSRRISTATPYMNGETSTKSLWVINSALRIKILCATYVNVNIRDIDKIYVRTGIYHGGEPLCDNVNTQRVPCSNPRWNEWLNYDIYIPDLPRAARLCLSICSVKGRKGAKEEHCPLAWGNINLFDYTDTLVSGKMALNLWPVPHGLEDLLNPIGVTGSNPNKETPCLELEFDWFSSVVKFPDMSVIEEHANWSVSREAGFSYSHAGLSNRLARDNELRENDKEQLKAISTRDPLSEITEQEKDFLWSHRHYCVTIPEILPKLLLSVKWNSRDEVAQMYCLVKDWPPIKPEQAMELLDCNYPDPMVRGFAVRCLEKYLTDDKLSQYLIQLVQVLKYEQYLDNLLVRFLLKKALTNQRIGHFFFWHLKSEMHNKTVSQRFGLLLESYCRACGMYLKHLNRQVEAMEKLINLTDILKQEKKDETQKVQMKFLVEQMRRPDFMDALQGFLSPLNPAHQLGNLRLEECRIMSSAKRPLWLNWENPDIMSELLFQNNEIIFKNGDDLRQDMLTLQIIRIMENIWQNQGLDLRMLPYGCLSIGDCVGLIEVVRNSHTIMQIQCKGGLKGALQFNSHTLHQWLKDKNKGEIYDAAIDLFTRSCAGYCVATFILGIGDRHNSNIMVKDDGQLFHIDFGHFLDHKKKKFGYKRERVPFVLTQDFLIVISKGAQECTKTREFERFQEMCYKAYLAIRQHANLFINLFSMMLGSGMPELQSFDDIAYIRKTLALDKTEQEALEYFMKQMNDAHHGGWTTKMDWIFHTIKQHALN
# Sequence (P27986 whole entry partner): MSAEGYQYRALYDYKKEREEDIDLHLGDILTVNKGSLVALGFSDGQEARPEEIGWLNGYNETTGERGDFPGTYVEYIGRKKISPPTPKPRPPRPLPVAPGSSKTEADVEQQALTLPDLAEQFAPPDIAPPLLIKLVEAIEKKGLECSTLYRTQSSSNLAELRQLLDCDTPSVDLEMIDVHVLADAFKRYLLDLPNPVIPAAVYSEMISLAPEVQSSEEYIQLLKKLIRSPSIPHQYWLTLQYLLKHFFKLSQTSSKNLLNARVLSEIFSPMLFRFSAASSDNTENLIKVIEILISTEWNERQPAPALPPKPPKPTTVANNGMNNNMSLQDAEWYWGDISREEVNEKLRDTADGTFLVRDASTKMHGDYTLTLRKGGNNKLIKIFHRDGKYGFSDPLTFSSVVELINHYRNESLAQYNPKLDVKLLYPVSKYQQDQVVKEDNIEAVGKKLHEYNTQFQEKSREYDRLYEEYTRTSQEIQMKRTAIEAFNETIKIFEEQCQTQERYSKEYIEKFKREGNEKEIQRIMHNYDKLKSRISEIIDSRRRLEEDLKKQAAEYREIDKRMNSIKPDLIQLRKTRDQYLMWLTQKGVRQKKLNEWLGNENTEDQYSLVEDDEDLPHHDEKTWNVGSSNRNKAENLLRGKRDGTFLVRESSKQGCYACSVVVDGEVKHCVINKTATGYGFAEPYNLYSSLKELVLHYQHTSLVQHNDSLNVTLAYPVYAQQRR
# test-method-notes: PI3Kα enzyme assay (ADP-Glo)
# Assay type: biochemical
# condition-parameters: read-out: PI3Kα enzyme inhibitory activity
Parameter IC50: see the listing below.

CN(C)CC(C)(C)Cn1cc(-c2cnc3ccc(Nc4nnc(C5CCCC5)s4)nc3c2)cn1    < 1000 nM
CC(C)c1cnnc(Nc2ccc3ncc(-c4ccc(=O)n(CCCN5CCOCC5)c4)cc3n2)c1    < 1000 nM
CC(C)c1cnnc(Nc2ccc3ncc(-c4cncnc4)cc3n2)c1    10000 to 50000 nM

Query: # return recorded IC50 for input "CC(C)c1cnnc(Nc2ccc3ncc(-c4cnn(CCCN5CC(OCC(F)(F)F)C5)c4)cc3n2)c1"
Reply: < 1000 nM
